Taken from PubChem BioAssay (NCATS).

target.of.assay: Flap endonuclease 1 (Homo sapiens)
protocol.text: qHTS Validation Assay for the Inhibitors of Human Flap endonuclease 1 (FEN1) (AID 488816)
reported.conditions: FEN1 nuclease activity, fluorogenic DNA substrate; series mostly up to 57.1 µM
Calls of active or inactive are those of the source. Calls follow the shape of the dose curve; as a rule, active = well fitted inhibition curve with a large enough effect; inconclusive = small, poorly fitted or top-dose-only effect; inactive = flat fitted curve, though single readings scatter.
Could you please pick one outcome from this set? YES (active), NO (inactive)

> print(dat)
                                smiles.data  group
1  CCOC(=O)C1=C(C)NC(C)=C(C(=O)OCC)C1c1c(F)c(F)c(F)c(F)c1F     NO
2                    N[C@@H](CC(=O)O)C(=O)O     NO
3                              NC(=O)C(=O)O     NO
4              NCCNC(=O)c1ncsc1-c1cccc(F)c1     NO

How was C[N+](C)(CCCCCC[N+](C)(C)CCCN1C(=O)c2cccc3cccc(c23)C1=O)CCCN1C(=O)c2cccc3cccc(c23)C1=O classified in this test?
YES

Another compound: CN1CCC[C@H]1c1cccnc1
NO

Another compound: O=C1/C(=C/c2ccsc2)CC/C1=C\c1cccs1
NO

Another compound: COc1cc(SC)ccc1C(=O)N1CCC(Cc2ccccc2)CC1
NO

Another compound: CN1CCc2ccccc2Cc2[nH]c3ccccc3c2CC1
NO

Another compound: CCc1c(C(=O)NCCc2ccc(N3CCCCC3)cc2)[nH]c2ccc(Cl)cc12
NO
